Molecular target: T1, recombinant, soluble human ASGR-1 (human, UniProt P07306 62-291)
T1 construct: biotinylated in the binning assay; also called soluble huASGR-1; Soluble ASGR-1 (Amgen)
T1 sequence: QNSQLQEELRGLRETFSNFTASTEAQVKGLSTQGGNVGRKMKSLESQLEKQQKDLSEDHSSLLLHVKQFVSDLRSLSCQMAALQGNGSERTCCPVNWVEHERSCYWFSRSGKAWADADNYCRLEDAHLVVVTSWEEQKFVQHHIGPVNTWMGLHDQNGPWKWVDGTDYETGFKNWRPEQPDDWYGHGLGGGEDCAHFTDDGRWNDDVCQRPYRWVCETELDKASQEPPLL
Experiment: Octet BLI dissociation, pH 7.4 minus calcium
property_measured: % Change Compared to pH 7.4 + Calcium (%)
Answer with a number only, understood to be in %.

[[record]]
binder = "7G4 (antibody, V domains shown, hybridoma mAb) VH: QVQLVESGGGVVQPGRSLRLSCAASGFTFNNYVMHWVRQAPGKGLEWVAVIWYDGSNKYYADSVKGRFTISRDNSKNTLYLQMTSLRAEDTAVYYCAREKYSSNWYDYGMDVWGQGTTVTVSS VL: DIQMTQSPSSLSASVGDRVTITCRASQGIRNDLGWYQQRPGKAPKRLIYAASSLQSGVPSRFSGSGSGTEFTLTISSLQPEDSATYYCLHQYSYPRTFGQGTKVEIK"
endpoint_value = 2


Problem: Report % Change Compared to pH 7.4 + Calcium for 213B3 (antibody, V domains shown, hybridoma mAb) VH: QVQLVESGGGVVQPGRSLRLSCAASGFTFSSYGMHWVRQAPGKGLEWVAVIWYDGSNKNYADSVKGRFTISRDNSKNTLYLQMNSLRAEDTAVYYCARDRTVGYDGFDIWGQGTMVTVSS VL: DIQMTQSPSSLSASVGDRVTITCRASQGIGKYLAWFQQKPGKAPKSLISAASSVLSGVPSKFSGSGSGTDFTLTISSLQPEDFATYYCQKYDTYPFTFGPGTKVDIK
Solution: -1
